- experiment: Metabolic stability in mouse liver microsomes assessed as parent compound remaining at 1 uM after 60 mins in presence of NADP by LC-MS/MS analysis
- Assay type: ADME, microsome
- experimental setup: read-out: Stability
remaining at 1 h, 1 µM listing for selected compounds.
// note: answer is a bare numeric in %

Recorded results for 4 compounds are shown here.
[[record]]
molecule_smiles = "C=CCO[C@]1(C)C[C@@H](C)NC(=O)[C@H](C)[C@@H](O)[C@](C)(O)[C@@H](CC)OC(=O)[C@H](C)[C@@H](OC(=O)CCNCCNc2cc3c(=O)c(C(=O)O)cn(C4CC4)c3cc2Cl)[C@H](C)[C@H]1O[C@@H]1O[C@H](C)C[C@H](N(C)C)[C@H]1O"
reading = 100

[[record]]
molecule_smiles = "CC[C@H]1OC(=O)[C@H](C)[C@@H](OC(=O)CCNCCNc2cc3c(=O)c(C(=O)O)cn(C4CC4)c3cc2Cl)[C@H](C)[C@@H](O[C@@H]2O[C@H](C)C[C@H](N(C)C)[C@H]2O)[C@](C)(OC/C=C/c2cnc3ccccc3c2)C[C@@H](C)NC(=O)[C@H](C)[C@@H](O)[C@]1(C)O"
reading = 100

[[record]]
molecule_smiles = "CC[C@H]1OC(=O)[C@H](C)[C@@H](O[C@H]2C[C@@](C)(OC)[C@@H](O)[C@H](C)O2)[C@H](C)[C@@H](O[C@@H]2O[C@H](C)C[C@H](N(C)C)[C@H]2O)[C@](C)(O)C[C@@H](C)CN(C)[C@H](C)[C@@H](O)[C@]1(C)O"
reading = 100

[[record]]
molecule_smiles = "CC[C@H]1OC(=O)[C@H](C)[C@@H](O[C@H]2C[C@@](C)(OC)[C@@H](O)[C@H](C)O2)[C@H](C)[C@@H](O[C@@H]2O[C@H](C)C[C@H](N(C)C)[C@H]2O)[C@](C)(OC)C[C@@H](C)C(=O)[C@H](C)[C@@H](O)[C@]1(C)O"
reading = 100


Now consider the entry below.
Lab note: `CCOc1ccc2ccc(=O)oc2c1` gave remaining at 1 h, 1 µM of 30

----------
- experiment: Terminal half life in Han Wistar rat at 10 mg/kg, iv by LC-MS/MS analysis
- Format: ADME, organism-based
- experimental setup: in vivo, read-out: beta t1/2 (converted)
measured quantity: half-life (h)
// note: answer is a bare numeric in h

Lab note: `C=CCO[C@]1(C)C[C@@H](C)NC(=O)[C@H](C)[C@@H](O)[C@](C)(O)[C@@H](CC)OC(=O)[C@H](C)[C@@H](OC(=O)CCNCCNc2cc3c(=O)c(C(=O)O)cn(C4CC4)c3cc2Cl)[C@H](C)[C@H]1O[C@@H]1O[C@H](C)C[C@H](N(C)C)[C@H]1O` gave half-life of 1.6

Lab note: `CC[C@H]1OC(=O)[C@H](C)C(=O)[C@H](C)[C@@H](O[C@@H]2O[C@H](C)C[C@H](N(C)C)[C@H]2O)[C@](C)(OC)C[C@@H](C)C(=O)[C@H](C)[C@H]2N(CCCCn3cnc(-c4cccnc4)c3)C(=O)O[C@]12C` gave half-life of 1.7

Lab note: `CC[C@H]1OC(=O)[C@H](C)[C@@H](OC(=O)CCNCCNc2cc3c(=O)c(C(=O)O)cn(C4CC4)c3cc2Cl)[C@H](C)[C@@H](O[C@@H]2O[C@H](C)C[C@H](N(C)C)[C@H]2O)[C@](C)(OC/C=C/c2cnc3ccccc3c2)C[C@@H](C)NC(=O)[C@H](C)[C@@H](O)[C@]1(C)O` gave half-life of 4.3

----------
- Test system: Staphylococcus aureus
- experiment: Antibacterial activity against erythromycin susceptible Staphylococcus aureus by agar microdilution method
- Assay type: functional
MIC listing for selected compounds.
// note: answer is a bare numeric in µg/mL

[[record]]
molecule_smiles = "C=CCO[C@]1(C)C[C@@H](C)NC(=O)[C@H](C)[C@@H](OC(=O)C=C)[C@](C)(O)[C@@H](CC)OC(=O)[C@H](C)[C@@H](OC(=O)C=C)[C@H](C)[C@H]1O[C@@H]1O[C@H](C)C[C@H](N(C)C)[C@H]1O"
reading = 32


Lab note: `C=CCO[C@]1(C)C[C@@H](C)NC(=O)[C@H](C)[C@@H](O)[C@](C)(O)[C@@H](CC)OC(=O)[C@H](C)[C@@H](OC(=O)CCNCCNc2cc3c(cc2F)c(=O)c(C(=O)O)cn3C2CC2)[C@H](C)[C@H]1O[C@@H]1O[C@H](C)C[C@H](N(C)C)[C@H]1O` gave MIC of 0.25

----------
- experiment: Volume of distribution at steady state in Han Wistar rat at 10 mg/kg, iv by LC-MS/MS analysis
- Type: ADME, organism-based
- experimental setup: in vivo, read-out: Vdss
measured quantity: Vd (L/kg)
// note: answer is a bare numeric in L/kg

[[record]]
molecule_smiles = "C=CCO[C@]1(C)C[C@@H](C)NC(=O)[C@H](C)[C@@H](O)[C@](C)(O)[C@@H](CC)OC(=O)[C@H](C)[C@@H](OC(=O)CCNCCNc2cc3c(=O)c(C(=O)O)cn(C4CC4)c3cc2Cl)[C@H](C)[C@H]1O[C@@H]1O[C@H](C)C[C@H](N(C)C)[C@H]1O"
reading = 3.2

[[record]]
molecule_smiles = "CC[C@H]1OC(=O)[C@H](C)C(=O)[C@H](C)[C@@H](O[C@@H]2O[C@H](C)C[C@H](N(C)C)[C@H]2O)[C@](C)(OC)C[C@@H](C)C(=O)[C@H](C)[C@H]2N(CCCCn3cnc(-c4cccnc4)c3)C(=O)O[C@]12C"
reading = 5.6


Now consider the entry below.
Lab note: `CC[C@H]1OC(=O)[C@H](C)[C@@H](OC(=O)CCNCCNc2cc3c(=O)c(C(=O)O)cn(C4CC4)c3cc2Cl)[C@H](C)[C@@H](O[C@@H]2O[C@H](C)C[C@H](N(C)C)[C@H]2O)[C@](C)(OC/C=C/c2cnc3ccccc3c2)C[C@@H](C)NC(=O)[C@H](C)[C@@H](O)[C@]1(C)O` gave Vd of 6.7

----------
- experiment: Protein binding in rat plasma at 1 ug/ml by LC-MS/MS analysis
- Type: ADME, cell-free
- experimental setup: read-out: PPB (converted)
measured quantity: fraction unbound at 1 ug/ml
Respond with the number and no other words.

[[record]]
molecule_smiles = "CC[C@H]1OC(=O)[C@H](C)[C@@H](O[C@H]2C[C@@](C)(OC)[C@@H](O)[C@H](C)O2)[C@H](C)[C@@H](O[C@@H]2O[C@H](C)C[C@H](N(C)C)[C@H]2O)[C@](C)(OC)C[C@@H](C)C(=O)[C@H](C)[C@@H](O)[C@]1(C)O"
reading = 1

[[record]]
molecule_smiles = "C=CCO[C@]1(C)C[C@@H](C)NC(=O)[C@H](C)[C@@H](O)[C@](C)(O)[C@@H](CC)OC(=O)[C@H](C)[C@@H](OC(=O)CCNCCNc2cc3c(=O)c(C(=O)O)cn(C4CC4)c3cc2Cl)[C@H](C)[C@H]1O[C@@H]1O[C@H](C)C[C@H](N(C)C)[C@H]1O"
reading = 0.63

[[record]]
molecule_smiles = "CC[C@H]1OC(=O)[C@H](C)C(=O)[C@H](C)[C@@H](O[C@@H]2O[C@H](C)C[C@H](N(C)C)[C@H]2O)[C@](C)(OC)C[C@@H](C)C(=O)[C@H](C)[C@H]2N(CCCCn3cnc(-c4cccnc4)c3)C(=O)O[C@]12C"
reading = 0.56


Lab note: `CC[C@H]1OC(=O)[C@H](C)[C@@H](OC(=O)CCNCCNc2cc3c(=O)c(C(=O)O)cn(C4CC4)c3cc2Cl)[C@H](C)[C@@H](O[C@@H]2O[C@H](C)C[C@H](N(C)C)[C@H]2O)[C@](C)(OC/C=C/c2cnc3ccccc3c2)C[C@@H](C)NC(=O)[C@H](C)[C@@H](O)[C@]1(C)O` gave fraction unbound at 1 ug/ml of 0.42

Lab note: `CC[C@H]1OC(=O)[C@H](C)[C@@H](O[C@H]2C[C@@](C)(OC)[C@@H](O)[C@H](C)O2)[C@H](C)[C@@H](O[C@@H]2O[C@H](C)C[C@H](N(C)C)[C@H]2O)[C@](C)(O)C[C@@H](C)CN(C)[C@H](C)[C@@H](O)[C@]1(C)O` gave fraction unbound at 1 ug/ml of 0.72

----------
MIC listing for selected compounds.
- Tested on: Staphylococcus aureus
- experiment: Antibacterial activity against erythromycin susceptible Staphylococcus aureus by agar microdilution method
- Type: functional

[[record]]
compound = "C=CCO[C@]1(C)C[C@@H](C)NC(=O)[C@H](C)[C@@H](O)[C@](C)(O)[C@@H](CC)OC(=O)[C@H](C)[C@@H](OC(=O)CCN2CCN(c3cc4c(cc3F)c(=O)c(C(=O)OC)cn4C3CC3)CC2)[C@H](C)[C@H]1O[C@@H]1O[C@H](C)C[C@H](N(C)C)[C@H]1O"
measured_quantity = "MIC"
reading = "2 µg/mL"

[[record]]
compound = "C=CCO[C@]1(C)C[C@@H](C)NC(=O)[C@H](C)[C@@H](O)[C@](C)(O)[C@@H](CC)OC(=O)[C@H](C)[C@@H](OC(=O)CCNC(C)Cc2ccc([N+](=O)[O-])cc2)[C@H](C)[C@H]1O[C@@H]1O[C@H](C)C[C@H](N(C)C)[C@H]1O (stereo not given in full)"
measured_quantity = "MIC"
reading = "1 µg/mL"


Lab note: C=CCO[C@]1(C)C[C@@H](C)NC(=O)[C@H](C)[C@@H](O)[C@](C)(O)[C@@H](CC)OC(=O)[C@H](C)[C@@H](OC(=O)CCNC(C)Cc2ccccc2)[C@H](C)[C@H]1O[C@@H]1O[C@H](C)C[C@H](N(C)C)[C@H]1O (stereo not given in full) gave MIC of 4 µg/mL

Lab note: C=CCO[C@]1(C)C[C@@H](C)NC(=O)[C@H](C)[C@@H](O)[C@](C)(O)[C@@H](CC)OC(=O)[C@H](C)[C@@H](OC(=O)CCNC(C)C(=O)Nc2ccc3ncccc3c2)[C@H](C)[C@H]1O[C@@H]1O[C@H](C)C[C@H](N(C)C)[C@H]1O (stereo not given in full) gave MIC of 0.5 µg/mL

Lab note: `O=C(O)c1cn(C2CC2)c2cc(Cl)c(N3CCNCC3)cc2c1=O` gave MIC of > 64 µg/mL
